tested on: M. incognita; assay: Meloidogyne incognita infectivity assays (tomato roots in soil); format: in vivo; settings: 45 μM in soil, 8 weeks, eggs per mg root relative to DMSO control
measured.parameter: % effectiveness at inhibiting reproduction of M. incognita (%)
Just the number in %, nothing appended.

Some solved cases for reference:
c1ccc(-c2noc(-c3cccs3)n2)cc1 [tioxazafen, reference compound]: 43.7
Cc1cn2cc(-c3ccc(I)cc3)nc2s1: 25.7
Clc1ccc(-c2cn3ccsc3n2)cc1: 27.1
Cc1cn2cc(-c3ccc(Br)cc3)nc2s1: 1.2

`Cc1csc2nc(-c3ccc(Br)cc3)cn12` tested on M. incognita gave % effectiveness at inhibiting reproduction of M. incognita: 8.1

`Cc1csc2nc(-c3ccc(F)cc3)cn12` tested on M. incognita gave % effectiveness at inhibiting reproduction of M. incognita: 0.6

`Cc1cn2cc(-c3ccc(Cl)cc3)nc2s1` tested on M. incognita gave % effectiveness at inhibiting reproduction of M. incognita: 44.2

----------
test system: M. chitwoodi; test: Root-knot nematode M. chitwoodi mobility (Table 3); type: in vivo, Meloidogyne chitwoodi; conditions: 45 μM, 2 days of chronic exposure
Response field label takes y when RKN mobility is strictly below 30% and n in all other cases.

Use these answered entries as a reference point.
Cc1cn2cc(-c3ccc(Cl)cc3)nc2s1: n
Cc1cn2cc(-c3ccc(F)cc3)nc2s1: y

Pending compound:
*Q* Given `Cc1csc2nc(-c3ccc(Cl)cc3)cn12` , is recorded RKN mobility strictly lower than 30%?
*A* y

----------
tested on: M. chitwoodi; assay: Root-knot nematode M. chitwoodi mobility (Table 3); format: in vivo, Meloidogyne chitwoodi; conditions: 45 μM, 2 days of chronic exposure
measured.parameter: RKN mobility (%)
Just the number in %, nothing appended.

Some solved cases for reference:
Cc1cn2cc(-c3ccc(I)cc3)nc2s1: 82.5
Fc1ccc(-c2cn3ccsc3n2)cc1: 43.2
Clc1ccc(-c2cn3ccsc3n2)cc1: 0

Kindly consider the entry below.
For reference, reported RKN mobility for `Cc1csc2nc(-c3ccccc3)cn12` stands at 50.8
